Answer each item with its documented cytotoxicity at 70.5 h.
assay.details: Human HepG2 cell viability assay in 384 well format
Assay type: toxicity, cell-based
Set-up: dose 125 nL, time 70.5 hour; concentration not given beside the values
conditions.used: HepG2 cells, read-out: Inhibition
Give bare numbers, in %.

Sample answers from the record:
compound=CN1CCN(C(=O)[C@H]2C[C@H]3[C@H](CCN3Cc3cccs3)O2)CC1 value_measured=-2.03
compound="CCc1nc(N2CCCC(CCCOC)(C(=O)O)C2)ncc1C (stereo not given)" value_measured=-10.1
compound="c1ccc(CNCC2Cn3nncc3CO2)nc1 (stereo not given)" value_measured=-7.76

For the 8 compounds below, give their cytotoxicity at 70.5 h values.
1. O=C(CCOc1ccc(Cl)cc1)NCCCn1cccn1
2. Cc1c(C(=O)NCCC(C)C)nnn1-c1cccc2c1CCN(C)C2
3. CN(C)C(=O)c1cc(-c2ccncc2)[nH]n1
4. CCOC1COC2(CCN(Cc3ccco3)CC2)C1 (stereo not given)
5. COCCN1CCN(C(=O)C[C@@H]2C[C@@H](C(C)C)[C@H](CO)C=C2C)CC1
6. Cc1cc(C(=O)N2CCc3nc(N4CCCC4)nc(C)c3CC2)c(C)o1
7. CCC(O)CN1CCN(C(=O)c2ccn(-c3ccccc3)n2)CC1 (stereo not given)
8. CCC(C(=O)NC1CCCC1)n1ccc2ncccc2c1=O (stereo not given)

Resp:
1. 23.1
2. -5.25
3. -4.19
4. 18.2
5. -3.05
6. -7.18
7. 2.94
8. -16.4

For the 5 compounds below, give their cytotoxicity at 70.5 h values.
1. COc1ccc2c(c1)NC(C1CCN(C(=O)C(C)C)CC1)NS2(=O)=O (stereo not given)
2. Cc1noc(C(C)SCc2ccccn2)n1 (stereo not given)
3. CC(C)c1cc(C(=O)N2CCN(Cc3ccc(C#N)cc3)CC2)n[nH]1
4. CCN(CC)S(=O)(=O)CCNc1nnc(C(C)C)s1
5. CC(=O)N1Cc2ccnn2CC(C(=O)NCc2cccnc2)C1 (stereo not given)

Resp:
[-3.05, -8.37, -4.18, 6.99, -6.11]

For the 3 compounds below, give their cytotoxicity at 70.5 h values.
1. Cc1cc(N2CCC(NCCOc3ccccc3)CC2)nc(C)n1
2. COc1cc(F)c(S(=O)(=O)N2c3ncccc3NC(=O)C2C)cc1OC (stereo not given)
3. Cn1ncc2c1CN(C(=O)Cc1ccccn1)CC2COCC1CC1 (stereo not given)

Resp:
1: 3.15; 2: -5.44; 3: -10.6

For the 6 compounds below, give their cytotoxicity at 70.5 h values.
1. COc1ccc2cc(C3CN(C(=O)C4CCOCC4)CCO3)ccc2c1 (stereo not given)
2. CC(=O)N1CCCN(C(=O)CCc2c(C)nc3ccnn3c2C)CC1
3. NC(=O)[C@@H]1Cc2ccccc2N1C(=O)C1CC(c2ccccc2)=NO1 (stereo not given in full)
4. COc1ncccc1CNC(=O)c1cc(Cl)ccn1
5. O=C1CCCCCN1Cc1cccc(OC(F)F)c1
6. Cc1ncncc1C(=O)NCCn1nc2ccccn2c1=O

Resp:
1. 1.57
2. -15.3
3. 6.72
4. -8.01
5. -5.05
6. -3.41

---

Answer each item with its documented cytotoxicity at 70.5 h.
assay.details: Human HepG2 cell viability assay in 384 well format
Type: toxicity, cell-based
Design: dose 125 nL, time 70.5 hour; concentration not given beside the values
conditions.used: HepG2 cells, read-out: Inhibition
Numbers only, in %.

Sample answers from the record:
molecule="CCc1ncc(CN2CCOC(Cc3cccc(F)c3)C2)cn1 (centres undefined)" endpoint_name="cytotoxicity at 70.5 h" value_measured=-9.07
molecule=COCCCN(Cc1ccncc1)c1cc(C)ncn1 endpoint_name="cytotoxicity at 70.5 h" value_measured=6.24
molecule="CC(C(=O)NCc1ccc(N2CCCC2)nc1)n1cncn1 (centres undefined)" endpoint_name="cytotoxicity at 70.5 h" value_measured=-0.612
molecule=CN1CCCN(c2nc3c(cnn3C(C)(C)C)c(=O)[nH]2)CC1 endpoint_name="cytotoxicity at 70.5 h" value_measured=16.5
molecule="CC(CNC(=O)c1nnn(-c2ccccc2)c1C(F)(F)F)N(C)C (centres undefined)" endpoint_name="cytotoxicity at 70.5 h" value_measured=-8.59
molecule="CCC(NC(=O)CCNC(=O)c1ccccc1F)c1cc(C)ccn1 (centres undefined)" endpoint_name="cytotoxicity at 70.5 h" value_measured=-0.798
molecule=COc1cccc(C(=O)N2CCc3c(nc(N)[nH]c3=O)C2)c1C endpoint_name="cytotoxicity at 70.5 h" value_measured=1.02
molecule=C=C(C)COc1ccccc1C(=O)NCCCc1nnn[nH]1 endpoint_name="cytotoxicity at 70.5 h" value_measured=-13

For the 4 molecules below, give their cytotoxicity at 70.5 h values.
1. Cc1nn(C)c2nc(-c3ccccn3)nc(NCCC3CCCN3C)c12 (centres undefined)
2. COCC(NC1CSCCSC1)c1ccnn1C (centres undefined)
3. CCn1nc(C)c2nc(C(C)C)nc(N(C)Cc3ccco3)c21
4. CC(C)n1cc2cc(NC(=O)Cn3cnnn3)ccc2n1

Resp:
1.37
-13.2
-17
-7.92
